Please provide measured pEC50 for the entries that follow.
ASSAYED SYSTEM: G protein-coupled receptor 119 (GPR-119) (Mesocricetus auratus)
Construct: hamster-derived β-cells containing G protein-coupled receptor 119 (GPR-119), HIT-T15 cells; host or cells: HIT-T15 (hamster pancreatic β-cells)
Sequence (A0A1U8CD06 1-334): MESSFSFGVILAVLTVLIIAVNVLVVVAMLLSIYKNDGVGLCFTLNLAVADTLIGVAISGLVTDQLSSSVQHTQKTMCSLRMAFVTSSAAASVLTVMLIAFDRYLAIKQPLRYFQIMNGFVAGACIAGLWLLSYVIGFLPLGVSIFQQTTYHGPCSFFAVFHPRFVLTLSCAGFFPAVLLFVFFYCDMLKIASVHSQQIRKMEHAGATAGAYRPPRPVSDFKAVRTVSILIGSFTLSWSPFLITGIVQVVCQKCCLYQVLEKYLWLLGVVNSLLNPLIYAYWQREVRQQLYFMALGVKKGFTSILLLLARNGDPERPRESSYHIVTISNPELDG
PROCEDURE TEXT: Evaluation of cAMP activity in HIT-T15 cells (HTRF cAMP dynamic kit)
Format: cell-based, hamster
TEST SETTINGS: cAMP activation, 1 h at 37° C., six concentrations, read-out: EC50
Give bare numbers, as −log10 of the molar value.

1. CCc1cnc(N2CCC(COc3ccc(C4=CCC(C(=O)N[C@H](C)CO)CC4)cc3)CC2)nc1 (some centres unmarked)
7.05
2. CC(C)c1noc(N2CCC(COc3ccc(C4=CCC(C(=O)N[C@H](C)CO)CC4)cc3F)CC2)n1 (some centres unmarked)
7.52
3. CCc1cnc(N2CCC(COc3ccc(C4=CCC(C(=O)N5CC[C@H](O)C5)CC4)cc3)CC2)nc1 (some centres unmarked)
7.52
4. CC(C)c1noc(N2CCC(COc3ccc(C4=CCC(C(=O)N5CC[C@H](F)C5)CC4)cc3)CC2)n1 (some centres unmarked)
7.68

Now for a further molecule.
stdin: Which pEC50 is reported for this molecule? C[C@H](O)CNC(=O)C1CC=C(c2ccc(OCC3CCN(C(=O)OC(C)(C)C)CC3)cc2F)CC1 (some centres unmarked)
stdout: 7.15
